targetOfAssay: Chymase (Homo sapiens) (UniProt P23946)
Sequence (P23946 whole entry): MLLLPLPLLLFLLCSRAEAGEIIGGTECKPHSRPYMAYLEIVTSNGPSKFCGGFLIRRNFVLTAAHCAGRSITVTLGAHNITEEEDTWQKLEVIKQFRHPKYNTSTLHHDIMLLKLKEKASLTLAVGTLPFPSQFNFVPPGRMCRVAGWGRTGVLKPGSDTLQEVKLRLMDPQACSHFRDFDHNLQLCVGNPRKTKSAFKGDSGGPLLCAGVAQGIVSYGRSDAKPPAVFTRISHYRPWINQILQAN
procedureSummary: Inhibition of human chymase assessed as residual enzyme activity using chromogenic N-succinyl-Ala-Ala-Pro-Phe p-nitroanilide as substrate at 10 uM pre-incubated for 10 mins by spectrophotometry relative to untreated control
Assay type: single protein
readoutName: Ratio
Could you keep your reply to the number by itself?

Solved cases (4 shown):
{"testSmiles": "O=[N+]([O-])c1cccc(/C=C/S(=O)(=O)Nc2cccc(-c3nnn(Cc4cccc(Cl)c4)n3)c2)c1", "Ratio": 0.94}
{"testSmiles": "O=S(=O)(/C=C/c1cccc(F)c1)Nc1cccc(OCc2cn(Cc3cc4ccccc4s3)nn2)c1", "Ratio": 0.95}
{"testSmiles": "O=S(=O)(/C=C/c1cccc(Cl)c1)Nc1cccc(OCc2cn(Cc3cccc(Cl)c3)nn2)c1", "Ratio": 0.97}
{"testSmiles": "O=S(=O)(/C=C/c1cccc(C(F)(F)F)c1)Nc1cccc(-c2nnn(Cc3cccc(Cl)c3)n2)c1", "Ratio": 0.97}

Now look at this entry.
Could you share which Ratio value was measured for Cc1cccc(/C=C/S(=O)(=O)Nc2cccc(-c3nnn(Cc4cccc(Cl)c4)n3)c2)c1 ? 0.99

----------
targetOfAssay: UniProt:P23946
procedureSummary: Inhibition of human chymase assessed as residual enzyme activity using chromogenic N-succinyl-Ala-Ala-Pro-Phe p-nitroanilide as substrate at 10 uM pre-incubated for 10 mins by spectrophotometry relative to untreated control
Assay type: single protein
readoutName: Ratio
Could you keep your reply to the number by itself?

Could you share which Ratio value was measured for O=S(=O)(/C=C/c1cccc(Cl)c1)Nc1cccc(-c2nnn(Cc3cccc(Cl)c3)n2)c1 ? 0.97

Another compound to check: O=S(=O)(/C=C/c1cccc(C(F)(F)F)c1)Nc1cccc(OCc2cn(Cc3cccnc3)nn2)c1 1

Another compound to check: O=S(=O)(/C=C/c1cccc(C(F)(F)F)c1)Nc1cccc(OCc2cn(Cc3cc4ccccc4s3)nn2)c1 0.99

Another compound to check: O=[N+]([O-])c1cccc(/C=C/S(=O)(=O)Nc2cccc(OCc3cn(Cc4cc5ccccc5s4)nn3)c2)c1 0.89

----------
A collection of compounds and their measured Ratio Ki
procedureSummary: Ratio of Ki for bovine pancreatic trypsin to Ki for human thrombin
Could you keep your reply to the number by itself?

{"testSmiles": "O=[N+]([O-])c1cccc(/C=C/S(=O)(=O)Nc2cccc(OCc3cn(Cc4cc5ccccc5s4)nn3)c2)c1", "experimentalValue": 71}

Could you share which Ratio Ki value was measured for Nc1cccc(/C=C/S(=O)(=O)Nc2cccc(OCc3cn(Cc4cc5ccccc5s4)nn3)c2)c1 ? 41

----------
A collection of compounds and their measured Ratio
targetOfAssay: Chymase (Homo sapiens)
procedureSummary: Inhibition of human chymase assessed as residual enzyme activity using chromogenic N-succinyl-Ala-Ala-Pro-Phe p-nitroanilide as substrate at 10 uM pre-incubated for 10 mins by spectrophotometry relative to untreated control
Assay type: single protein
Could you keep your reply to the number by itself?

{"testSmiles": "O=S(=O)(/C=C/c1cccc(Cl)c1)Nc1cccc(OCc2cn(Cc3cc4ccccc4[nH]3)nn2)c1", "Ratio": 1}
{"testSmiles": "Nc1cccc(/C=C/S(=O)(=O)Nc2cccc(OCc3cn(Cc4cc5ccccc5s4)nn3)c2)c1", "Ratio": 0.88}
{"testSmiles": "O=[N+]([O-])c1cccc(/C=C/S(=O)(=O)Nc2cccc(OCc3cn(Cc4cccnc4)nn3)c2)c1", "Ratio": 1}

Now look at this entry.
Could you share which Ratio value was measured for O=S(=O)(/C=C/c1cccc(Cl)c1)Nc1cccc(OCc2cn(Cc3nc4ccccc4s3)nn2)c1 ? 1
